Each item that follows carries a reported MIC value of E. coli K-12 BW25113 carrying the pooled plasmids of the ASKA library.
System: E. coli K-12 BW25113 carrying ASKA plasmids
Protocol: microbe, parasite or virus in culture
Assay type: cell-based, Escherichia coli
Condition label: Replicate 3; MS medium + 10 µg mL−1 CHL + 500 µM IPTG, 5 × 10^5 cells, 16–18 h, 37 °C
Ends that are not written are not given here.
Measure name: MIC value of E. coli K-12 BW25113 carrying the pooled plasmids of the ASKA library (µg/mL)

| Sequence chain | Unit descriptor | Reported measurement |
| --- | --- | --- |
| FLGKVFKLASKVFKAVFGKV [R8] | µg/mL | 9.46 |
| TSSPPAAVVVRRRRRRRRRRRRRRRRRRR [PROA, protamine, cationic AMP purchased from Sigma-Aldrich] | µg/mL | 442.78 |
| GIINTLQKYYRVRGGRAVLSLPKEEQIGKSTRGRKRRKK [HBD3, Human beta-defensin-3, clinically relevant antimicrobial peptide with human origin] | µg/mL | 281.31 |
| KTKKKFLKKT [PXB, Polymyxin B, AMP used as a last-resort drug in the treatment of multidrug-resistant Gram-negative bacterial infections; from Sigma-Aldrich] | µg/mL | 3.18 |
| RFRPPIRRPPIRPPFYPPFRPPIRPPIFPPIRPPFRPPLGPFP [BAC5, Bactenecin 5] | µg/mL | 4.82 |
| SWLSKTAKKLENSAKKRISEGIAIAIQGGPR [CP1, Cecropin P1] | µg/mL | 2.31 |
| GLRKRLRKFRNKIKEKLKKIGQKIQGFVPKLAPRTDY [CAP18, rabbit CAP18] | µg/mL | 24.11 |
| RRRPRPPYLPRPRPPPFFPPRLPPRIPPGFPPRFPPRFP [PR39] | µg/mL | 5.79 |

----------
Test system: E. coli K-12 BW25113 carrying ASKA plasmids
Protocol: microbe, parasite or virus in culture
Type: cell-based, Escherichia coli
Condition label: Replicate 1; MS medium + 10 µg mL−1 CHL + 500 µM IPTG, 5 × 10^5 cells, 16–18 h, 37 °C
Ends that are not written are not given here.
Param label: returns met when MIC value of E. coli K-12 BW25113 carrying the pooled plasmids of the ASKA library < 20 µg/mL, returns not met otherwise, including exact equality.

| Sequence chain | Assigned class |
| --- | --- |
| SWLSKTAKKLENSAKKRISEGIAIAIQGGPR [CP1, Cecropin P1] | met |
| KTKKKFLKKT [PXB, Polymyxin B, AMP used as a last-resort drug in the treatment of multidrug-resistant Gram-negative bacterial infections; from Sigma-Aldrich] | met |
| GIINTLQKYYRVRGGRAVLSLPKEEQIGKSTRGRKRRKK [HBD3, Human beta-defensin-3, clinically relevant antimicrobial peptide with human origin] | not met |
| FLGKVFKLASKVFKAVFGKV [R8] | met |
| RFRPPIRRPPIRPPFYPPFRPPIRPPIFPPIRPPFRPPLGPFP [BAC5, Bactenecin 5] | met |
| RRRPRPPYLPRPRPPPFFPPRLPPRIPPGFPPRFPPRFP [PR39] | met |
| GLRKRLRKFRNKIKEKLKKIGQKIQGFVPKLAPRTDY [CAP18, rabbit CAP18] | not met |
| TSSPPAAVVVRRRRRRRRRRRRRRRRRRR [PROA, protamine, cationic AMP purchased from Sigma-Aldrich] | not met |

----------
Tested on: E. coli K-12 BW25113 carrying ASKA plasmids
Protocol: microbe, parasite or virus in culture
Assay type: cell-based, Escherichia coli
Condition label: Escherichia coli, BW25113, Replicate 2; MS medium + 10 µg mL−1 CHL + 500 µM IPTG, 5 × 10^5 cells, 16–18 h, 37 °C; read-out: MIC value of E. coli K-12 BW25113 carrying the pooled plasmids of the ASKA library

| Compound | MIC / mg/L |
| --- | --- |
| C[C@H]1c2cccc(O)c2C(=O)C2=C(O)[C@]3(O)C(=O)C(C(N)=O)=C(O)[C@@H](N(C)C)[C@@H]3[C@@H](O)[C@@H]21 | 1.59 |
| CCn1cc(C(=O)O)c(=O)c2ccc(C)nc21 | 1.05 |
| CC[C@H]1OC(=O)[C@H](C)[C@@H](O[C@H]2C[C@@](C)(OC)[C@@H](O)[C@H](C)O2)[C@H](C)[C@@H](O[C@@H]2O[C@H](C)C[C@H](N(C)C)[C@H]2O)[C@](C)(O)C[C@@H](C)C(=O)[C@H](C)[C@@H](O)[C@]1(C)O | 24.1 |
| O=C1CN(/N=C/c2ccc([N+](=O)[O-])o2)C(=O)N1 | 14.7 |
| CN(C)[C@@H]1C(O)=C(C(N)=O)C(=O)[C@@]2(O)C(O)=C3C(=O)c4c(O)cccc4[C@@](C)(O)[C@H]3C[C@@H]12 | 1.07 |
| COc1cc(Cc2cnc(N)nc2N)cc(OC)c1OC | 64 |
| CC1(C)S[C@@H]2[C@H](NC(=O)[C@H](N)c3ccccc3)C(=O)N2[C@H]1C(=O)O | 256 |
| NC[C@H]1O[C@H](O[C@H]2[C@H](O)[C@@H](O[C@H]3O[C@H](CO)[C@@H](O)[C@H](N)[C@H]3O)[C@H](N)C[C@@H]2N)[C@H](N)C[C@@H]1O | 2.58 |
| CO[C@@]1(NC(=O)Cc2cccs2)C(=O)N2C(C(=O)O)=C(COC(N)=O)CS[C@@H]21 | 69.2 |
